Values were extracted from ChEMBL document CHEMBL5154808.

test system: Pseudomonas aeruginosa; assay: Antimicrobial activity against Pseudomonas aeruginosa ATCC 27853 assessed as reduction of bacterial growth incubated for 18 hrs by CLSI protocol based broth microdilution method; format: functional
Overview of recorded MIC for various substances
Write the number in µM without appending the unit.

Below, each entry is followed by its recorded MIC result.
# lookup: MIC of "H-WKWKRRRFKWKW-NH2" 4

Also "H-RIRIRRRRFRIRIR-NH2" ? 4

Also "H-KWKWKRRRFKWKWK-NH2" ? 4

Also "H-IKIKRRRFKIKI-NH2" ? 16

Next:
# lookup: MIC of "H-LKLKRRRFKLKL-NH2" 64

Also "H-FRFRRRRFRFRF-NH2" ? 8
